Provide the recorded koff for the entries that follow.
Molecular target: 3-pTza peptide (Biotin-AminocaproicAcid-AGAG-3-pTza-AGAG)
Experiment: BLI
I'd appreciate it if you included the unit after the number.

- hSC44.20.N32F^L IgG (antibody, V domains shown) VH: EVQLVESGGGLVQPGGSLRLSCTASGFSIDSYGFSWVRQAPGKGLEHIGYLTAGGRAFYASWAKSRSTITRNTNENTVTLKMNSLRAEDTAVYYCAKLGTGSRFAIWGQGTLVTVSS VL: DIQMTQSPSSLSASVGDRVTITCRASQSVWRNKFVAWYQQKPGKAPKRLIYAIASLYSGVPSRFSGSGSGTDFTLTISSLQPEDFATYYCVGHYGSENDAYYAFGQGTKVEIK: 5.73e-05 s⁻¹

Next binder, koff to be filled in.
Input line: # koff lookup, item hSC44.31 IgG (antibody, V domains shown) VH: EVQLVESGGGLVQPGGSLRLSCTASGFSIDSYGFSWVRQAPGKGLEHIGYLTAGGRAFYASWAKSRSTITRNTNENTVTLKMNSLRAEDTAVYYCAKLGTGTPFAIWGQGTLVTVSS VL: DIQMTQSPSSLSASVGDRVTITCRASQSVWRNKYVAWYQQKPGKAPKRLIYAIASLYSGVPSRFSGSGSGTDFTLTISSLQPEDFATYYCVGHYGSENDAYYAFGQGTKVEIK
Output line: 3.98e-05 s⁻¹
